assay: Tacrolimus pharmacokinetic profiles and trough level monitoring before and after switch of booster from ritonavir to cobicistat in an HIV-infected kidney transplant recipient; assay type: in vivo, human; details: human, plasma, oral, co-administered with darunavir/ritonavir 800/100 mg once daily; 3rd pharmacokinetic profile; read-out: Tmax
measure: Tmax (h)

>>> assay_result("C=CC[C@@H]1/C=C(\\C)C[C@H](C)C[C@H](OC)[C@H]2O[C@@](O)(C(=O)C(=O)N3CCCC[C@H]3C(=O)O[C@H](/C(C)=C/[C@@H]3CC[C@@H](O)[C@H](OC)C3)[C@H](C)[C@@H](O)CC1=O)[C@H](C)C[C@@H]2OC")
4
